# chromatographic logD values compiled below
protocol.summary: Chromatographic hydrophobicity index, log D of the compound in phosphate buffer at pH 7.4 by UV-HPLC analysis
Format: physicochemical

[
  {
    "structure.as.smiles": "Cc1cc(C)cc(NC(=O)COc2cc(C(F)(F)F)nc3cc4c(cc23)OCO4)c1",
    "chromatographic logD": 6.73
  },
  {
    "structure.as.smiles": "Cc1cc(C)cc(NC(=O)COc2cc(C)nc3ccccc23)c1",
    "chromatographic logD": 5.39
  },
  {
    "structure.as.smiles": "COc1ccc2nc(C)c(NC(=O)C(=O)Nc3cc(C)cc(C)c3)c(O)c2c1",
    "chromatographic logD": 3.76
  },
  {
    "structure.as.smiles": "COc1ccc2nc(C)cc(OCC(=O)NNC(=O)c3ccncc3)c2c1",
    "chromatographic logD": 1.48
  },
  {
    "structure.as.smiles": "Cc1cc(C)cc(NC(=O)COc2cc(C)nc3ccc(C)cc23)c1",
    "chromatographic logD": 5.95
  },
  {
    "structure.as.smiles": "COc1ccc2nc(C)cc(OCC(=O)Nc3cc(C)c(F)c(C)c3)c2c1",
    "chromatographic logD": 5.5
  },
  {
    "structure.as.smiles": "COc1ccc2nc(C)cc(OCC(=O)Nc3ccc(S(=O)(=O)Nc4cc(C)on4)cc3)c2c1",
    "chromatographic logD": 2.2
  }
]
